EXPERIMENTAL_SYSTEM: MAGI3_2, Q5TCQ9
Sequence (Q5TCQ9 398-503): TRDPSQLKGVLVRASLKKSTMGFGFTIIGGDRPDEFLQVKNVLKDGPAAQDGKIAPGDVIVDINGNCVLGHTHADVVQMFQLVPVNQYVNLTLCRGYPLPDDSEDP
TEST_NAME: holdup assay
Design: key: below the threshold = too weak to quantify, mostly under pKd 3.1 to 4
SETTINGS: plain residues with an end cap or a label only (N-terminal biotin on a linker: ado-ado)
MEASURED_METRIC: pKd

LKDDELKTKL [SLCO1A2, P46721] | below the threshold
PYSESDDDWC [CACNA1A, O00555] | below the threshold
SLNANEVEWF [RNF130, Q86XS8] | below the threshold
ELSATVTTDC [TRIP6, Q15654] | below the threshold
EDLEDEWEVI [TECPR2, O15040] | below the threshold

Find the recorded pKd belonging to QSGLYESEEL [MYOT, Q9UBF9] and report it.
below the threshold

Find the recorded pKd belonging to QRPYRRGSEI [KCNJ18, B7U540] and report it.
3.99

Find the recorded pKd belonging to EPQYQPGENL [SRC, P12931] and report it.
below the threshold

Find the recorded pKd belonging to LESTTVGTSV [KARS1, Q15046] and report it.
4.09

Find the recorded pKd belonging to RSSGGDDFWF [KCNV1, Q6PIU1] and report it.
below the threshold

Find the recorded pKd belonging to GTGYDRKDYV [CLDN3, O15551] and report it.
below the threshold

Find the recorded pKd belonging to SRSVVESDEL [MYPN, Q86TC9] and report it.
below the threshold

Find the recorded pKd belonging to SVTSERETNI [SLC16A7, O60669] and report it.
below the threshold

Find the recorded pKd belonging to ARSAAASNYV [CLDN4, O14493] and report it.
below the threshold

Find the recorded pKd belonging to AAVENKVTDL [PLXNB1, O43157] and report it.
below the threshold

Find the recorded pKd belonging to DDASLPVSDV [PLEKHA1, Q9HB21] and report it.
below the threshold

Data credit: paper PMC9482650
